molecules and their reported inhibition
TARGET_SYSTEM: MAP kinase-interacting serine/threonine-protein kinase 1 (Homo sapiens)
Sequence (Q9BUB5 whole entry, looked up): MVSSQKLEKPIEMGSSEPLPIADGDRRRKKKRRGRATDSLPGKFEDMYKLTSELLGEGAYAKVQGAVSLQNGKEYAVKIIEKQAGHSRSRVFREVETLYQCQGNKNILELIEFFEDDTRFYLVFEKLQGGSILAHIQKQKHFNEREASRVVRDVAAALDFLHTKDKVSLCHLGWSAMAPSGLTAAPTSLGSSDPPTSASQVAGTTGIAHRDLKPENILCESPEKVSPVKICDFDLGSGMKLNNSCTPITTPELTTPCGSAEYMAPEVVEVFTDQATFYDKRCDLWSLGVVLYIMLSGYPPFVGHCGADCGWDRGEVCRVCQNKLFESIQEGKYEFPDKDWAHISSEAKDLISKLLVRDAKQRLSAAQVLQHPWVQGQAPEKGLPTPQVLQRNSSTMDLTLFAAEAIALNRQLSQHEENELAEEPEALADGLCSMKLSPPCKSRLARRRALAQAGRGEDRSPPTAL
ASSAY_METHOD_TEXT: Inhibition of MNK1 (unknown origin) at 5 uM preincubated for 10 mins followed by substrate addition and measured after 60 mins by ADP-glo kinase assay relative to control
CONDITION_NOTES: time 70.0 min
// return numeric value only (unit: %, not printed)

Worked examples follow.
IN: # query: inhibition | item `COc1ccc(CN2CCC(c3cc(-c4ccnc5[nH]ccc45)[nH]n3)CC2)cc1` | system: MAP kinase-interacting serine/threonine-protein kinase 1 (Homo sapiens)
OUT: 61.5

IN: Then this molecule: `O=C(C1CC1)N1CCC(c2cc(-c3ccnc4[nH]ccc34)[nH]n2)CC1`
OUT: 40.9

IN: Then this molecule: `FC(F)(F)c1cccc(CN2CCC(c3cc(-c4ccnc5[nH]ccc45)[nH]n3)CC2)c1`
OUT: 50.9

IN: Then this molecule: `O=C(C1CCCCC1)N1CCC(c2cc(-c3ccnc4[nH]ccc34)[nH]n2)CC1`
OUT: 20.8

IN: Then this molecule: `Cc1ccc(S(=O)(=O)N2CCC(c3cc(-c4ccnc5[nH]ccc45)[nH]n3)CC2)cc1`
OUT: 6.4

New cases:
IN: # query: inhibition | item `COC(=O)c1ccc(C(=O)N2CCC(c3cc(-c4ccnc5[nH]ccc45)[nH]n3)CC2)cc1` | system: MAP kinase-interacting serine/threonine-protein kinase 1 (Homo sapiens)
OUT: 77.1

IN: Then this molecule: `O=C(c1ccc([N+](=O)[O-])cc1)N1CCC(c2cc(-c3ccnc4[nH]ccc34)[nH]n2)CC1`
OUT: 78.6

IN: Then this molecule: `COc1ccc(C(=O)N2CCC(c3cc(-c4ccnc5[nH]ccc45)[nH]n3)CC2)cc1OC`
OUT: 73

IN: Then this molecule: `O=S(=O)(C1CC1)N1CCC(c2cc(-c3ccnc4[nH]ccc34)[nH]n2)CC1`
OUT: 63.6

IN: Then this molecule: `O=C(C1CCCC1)N1CCC(c2cc(-c3ccnc4[nH]ccc34)[nH]n2)CC1`
OUT: 47.5

====

TARGET_SYSTEM: Rho-associated protein kinase 1 (Homo sapiens, UniProt Q13464)
Sequence (Q13464 whole entry): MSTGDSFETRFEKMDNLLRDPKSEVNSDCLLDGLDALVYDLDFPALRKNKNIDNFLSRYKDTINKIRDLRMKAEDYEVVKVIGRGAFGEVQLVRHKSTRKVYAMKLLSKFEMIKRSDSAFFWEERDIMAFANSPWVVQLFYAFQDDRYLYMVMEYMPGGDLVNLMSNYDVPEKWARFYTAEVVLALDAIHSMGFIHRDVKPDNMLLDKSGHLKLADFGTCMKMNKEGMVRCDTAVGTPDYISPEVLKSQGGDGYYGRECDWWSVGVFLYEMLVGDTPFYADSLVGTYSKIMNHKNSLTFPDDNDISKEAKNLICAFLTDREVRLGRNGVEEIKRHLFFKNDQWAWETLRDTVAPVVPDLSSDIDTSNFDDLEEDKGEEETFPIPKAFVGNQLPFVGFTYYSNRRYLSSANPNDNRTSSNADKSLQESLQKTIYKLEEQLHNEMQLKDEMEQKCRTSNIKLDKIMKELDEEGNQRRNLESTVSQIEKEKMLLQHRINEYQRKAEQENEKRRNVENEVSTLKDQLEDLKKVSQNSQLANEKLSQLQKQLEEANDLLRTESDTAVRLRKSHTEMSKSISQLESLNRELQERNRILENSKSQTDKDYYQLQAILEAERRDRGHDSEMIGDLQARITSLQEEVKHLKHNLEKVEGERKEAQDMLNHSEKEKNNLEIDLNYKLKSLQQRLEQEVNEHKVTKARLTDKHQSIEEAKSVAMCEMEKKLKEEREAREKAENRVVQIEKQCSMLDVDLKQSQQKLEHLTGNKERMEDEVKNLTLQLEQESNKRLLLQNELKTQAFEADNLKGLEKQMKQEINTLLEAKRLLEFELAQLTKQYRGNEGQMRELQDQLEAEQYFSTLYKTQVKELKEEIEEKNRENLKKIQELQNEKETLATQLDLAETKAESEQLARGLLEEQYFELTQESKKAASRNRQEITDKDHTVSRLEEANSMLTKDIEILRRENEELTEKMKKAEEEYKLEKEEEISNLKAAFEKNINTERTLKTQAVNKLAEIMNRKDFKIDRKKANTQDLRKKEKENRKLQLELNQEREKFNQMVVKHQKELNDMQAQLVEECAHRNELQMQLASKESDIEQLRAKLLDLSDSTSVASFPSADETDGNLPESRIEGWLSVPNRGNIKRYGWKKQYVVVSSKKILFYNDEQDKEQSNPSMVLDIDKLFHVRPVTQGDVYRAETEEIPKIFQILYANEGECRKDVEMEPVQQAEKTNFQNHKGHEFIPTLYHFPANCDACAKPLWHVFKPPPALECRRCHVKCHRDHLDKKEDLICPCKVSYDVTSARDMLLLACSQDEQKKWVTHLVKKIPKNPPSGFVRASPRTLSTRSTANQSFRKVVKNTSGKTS
molecules and their reported pIC50
Conceptually, pIC50 converts a concentration in mol/L into minus its log10.

IN: # query: pIC50 | item `O=C(CC1CC1)N1CCC(c2cc(-c3ccnc4[nH]ccc34)[nH]n2)CC1` | system: Rho-associated protein kinase 1 (Homo sapiens, UniProt Q13464)
OUT: 5.93

Shifting focus to the molecule that follows.
IN: # query: pIC50 | item `O=S(=O)(F)N1CCC(c2cc(-c3ccnc4[nH]ccc34)[nH]n2)CC1` | system: Rho-associated protein kinase 1 (Homo sapiens, UniProt Q13464)
OUT: 6.64

====

As a worked illustration, we turn to IC50 data collected for Rho-associated protein kinase 2 (Homo sapiens, UniProt O75116).
Don't forget the unit after the value.

Worked examples follow.
IN: Param item = `O=S(=O)(F)N1CCC(c2cc(-c3ccnc4[nH]ccc34)[nH]n2)CC1` ; retrieve measured IC50.
OUT: 329 nM

IN: Then this compound: `O=C(c1ccc(C(F)(F)F)cc1)N1CCC(c2cc(-c3ccnc4[nH]ccc34)[nH]n2)CC1`
OUT: 939 nM

IN: Then this compound: `COC(=O)c1ccc(C(=O)N2CCC(c3cc(-c4ccnc5[nH]ccc45)[nH]n3)CC2)cc1`
OUT: 401 nM

Shifting focus to the compound that follows.
IN: Param item = `O=C(c1ccc(F)cc1)N1CCC(c2cc(-c3ccnc4[nH]ccc34)[nH]n2)CC1` ; retrieve measured IC50.
OUT: 833 nM
